Minimum inhibitory concentration overview
# System: clinical strains of Serratia marcescens
# assay name: MIC, microdilution, clinical strains
# Type: cell-based
# assay setup: Serratia marcescens strain 4, Muller Hinton broth-cation adjusted, 0.02% BSA, 0.2% acetic acid
Where a SMILES comes first, the peptide text is derived from it. [ ]: non-standard residue; d: D form.
assay metric: Minimum inhibitory concentration

{"columns": ["compound", "assay metric", "value measured"],
 "data": [
  ["CC[C@@H](C)[C@@H](NC(=O)[C@@H](CC(C)C)NC(=O)[C@@H](CCCNC(=N)N)NC(=O)[C@H](N)CCCNC(=N)N)C(=O)N[C@H](Cc1c[nH]c2ccccc12)C(=O)N[C@H](CCCNC(=N)N)C(=O)N[C@H](CCCNC(=N)N)C(=O)N[C@H](Cc1ccccc1)C(=O)N[C@H](CCCCN)C(=O)N[C@H](Cc1c[nH]c2ccccc12)C(=O)N[C@H](CC(C)C)C(=O)N[C@H](CCCNC(=N)N)C(=O)O [Chain204D] (H-[dR][dR][dL][dI][dW][dR][dR][dF][dK][dW][dL][dR]-OH)", "Minimum inhibitory concentration", ">128"],
  ["CC(C)C[C@@H](NC(=O)[C@@H](CCCCN)NC(=O)[C@@H](CCCCN)NC(=O)[C@@H](Cc1ccccc1)NC(=O)[C@@H](CC(C)C)NC(=O)[C@@H](Cc1c[nH]c2ccccc12)NC(=O)[C@@H](CCCNC(=N)N)NC(=O)[C@@H](Cc1c[nH]c2ccccc12)NC(=O)[C@@H](CCCCN)NC(=O)[C@@H](CCCNC(=N)N)NC(=O)[C@H](N)CCCCN)C(=O)O [Chain310D] (H-[dK][dR][dK][dW][dR][dW][dL][dF][dK][dK][dL]-OH)", "Minimum inhibitory concentration", ">128"]
]}
